system: A204; experiment: relative viability vs DMSO control (72 h) (fraction); higher = more viable cells; conditions: 10 µM
Labelling field: enter Condition met if recorded relative viability is less than 0.4. Enter Condition not met if it equals or exceeds that cut-off.

[
  {
    "test.smiles": "CO[C@H]1C[C@@H]2CC[C@@H](C)[C@@](O)(O2)C(=O)C(=O)N2CCCC[C@H]2C(=O)O[C@H]([C@H](C)C[C@@H]2CC[C@@H](OC(=O)C(C)(CO)CO)[C@H](OC)C2)CC(=O)[C@H](C)/C=C(\\C)[C@@H](O)[C@@H](OC)C(=O)[C@H](C)C[C@H](C)/C=C/C=C/C=C/1C",
    "assigned.label": "Condition met"
  },
  {
    "test.smiles": "CNC(=O)c1cccc2cc(Oc3ccnc4cc(OCC5(N)CC5)c(OC)cc34)ccc12",
    "assigned.label": "Condition met"
  },
  {
    "test.smiles": "C#Cc1cccc(Nc2ncnc3cc4c(cc23)OCCOCCOCCO4)c1",
    "assigned.label": "Condition not met"
  },
  {
    "test.smiles": "CCS(=O)(=O)N1CC(CC#N)(n2cc(-c3ncnc4[nH]ccc34)cn2)C1",
    "assigned.label": "Condition not met"
  }
]

Let's switch to this compound now.
Enquiry: Does this compound meet the criterion relative viability < 0.4? Cn1cnc2c(F)c(Nc3ccc(Br)cc3Cl)c(C(=O)NOCCO)cc21
Return: Condition not met

---

tested on: SW1353; assay: relative viability vs DMSO control (72 h) (fraction); higher = more viable cells; conditions: 0.00017 µM
measured.parameter: relative viability

Some solved entries appear below for comparison.
[
  {
    "molecule": "CC(=O)c1c(C)c2cnc(Nc3ccc(N4CCNCC4)cn3)nc2n(C2CCCC2)c1=O [Palbociclib]",
    "study.system": "SW1353",
    "measured.parameter": "relative viability",
    "observed": 1.05
  },
  {
    "molecule": "CN(C)C(=O)c1cc2cnc(Nc3ccc(N4CCNCC4)cn3)nc2n1C1CCCC1 [Ribociclib]",
    "study.system": "SW1353",
    "measured.parameter": "relative viability",
    "observed": 1.01
  },
  {
    "molecule": "Cc1c2oc3c(C)ccc(C(=O)N[C@@H]4C(=O)N[C@H](C(C)C)C(=O)N5CCC[C@H]5C(=O)N(C)CC(=O)N(C)[C@@H](C(C)C)C(=O)O[C@@H]4C)c3nc-2c(C(=O)N[C@@H]2C(=O)N[C@H](C(C)C)C(=O)N3CCC[C@H]3C(=O)N(C)CC(=O)N(C)[C@@H](C(C)C)C(=O)O[C@@H]2C)c(N)c1=O [Dactinomycin]",
    "study.system": "SW1353",
    "measured.parameter": "relative viability",
    "observed": 0.971
  }
]

The reported value for COc1cc2ncnc(Nc3ccc(F)c(Cl)c3)c2cc1OCCCN1CCOCC1 [Gefitinib] in terms of relative viability is 1.03

---

system: SW982; assay: relative viability vs DMSO control (72 h) (fraction); higher = more viable cells; conditions: 0.1235 µM
Reported relative viability values follow for various compounds
Keep it simple and answer with nothing but the number.

[
  {
    "compound": "O=C1CCc2c(Oc3ccc4c(c3)[C@@H]3[C@H](O4)[C@H]3c3nc4cc(C(F)(F)F)ccc4[nH]3)ccnc2N1",
    "relative viability": 1.05
  }
]

The reported value for COC(=O)c1ccc2c(c1)NC(=O)/C2=C(\Nc1ccc(N(C)C(=O)CN2CCN(C)CC2)cc1)c1ccccc1 in terms of relative viability is 1

The reported value for C#Cc1cccc(Nc2ncnc3cc4c(cc23)OCCOCCOCCO4)c1 in terms of relative viability is 1.06

The reported value for CCS(=O)(=O)N1CC(CC#N)(n2cc(-c3ncnc4[nH]ccc34)cn2)C1 in terms of relative viability is 0.987

The reported value for CN(C)CCCOc1ccc(-c2ccc3ncc4c(c3c2)n(C2CCOCC2)c(=O)n4C)cn1 in terms of relative viability is 0.828

The reported value for COc1cc(Nc2ncc3c(n2)-c2ccc(Cl)cc2C(c2c(F)cccc2OC)=NC3)ccc1C(=O)O in terms of relative viability is 0.583

The reported value for Cc1cc(F)c(C(=O)Nc2cccc(-c3nncn3C(C)C)n2)cc1-n1cnc(C2CC2)c1 in terms of relative viability is 1.07

The reported value for Cc1[nH]c(/C=C2\C(=O)Nc3ccccc32)c(C)c1CCC(=O)O [Orantinib] in terms of relative viability is 1.08

The reported value for C=CC(=O)N1CCC(CNc2ncnc(N)c2-c2ccc(Oc3ccccc3)cc2)CC1 in terms of relative viability is 1.09
